measurement_description: Cmax in rat at 5 mg/kg, iv
Format: ADME, organism-based
Design: dose 5 mg/kg, route intravenous
assay_conditions: in vivo
quantity_kind: Cmax (ng/mL)
Your answer is read as ng/mL, so omit the unit and give the number.

Recall and state the measured Cmax for `CC(=O)N1CCc2c(nc(C)n2[C@@H]2C[C@H]3CC[C@@H](C2)N3CCCN(C(=O)Nc2ccc(C(F)(F)F)cc2)c2ccccc2)C1` .
860

* * *

measurement_description: Half life in rat at 5 mg/kg, iv
Format: ADME, organism-based
Set-up: dose 5 mg/kg, route intravenous
assay_conditions: in vivo
quantity_kind: half-life (h)
Your answer is read as h, so omit the unit and give the number.

Recall and state the measured half-life for `CC(=O)N1CCc2c(nc(C)n2[C@@H]2C[C@H]3CC[C@@H](C2)N3CCCN(C(=O)Nc2ccc(C(F)(F)F)cc2)c2ccccc2)C1` .
10.7

* * *

measurement_description: Clearance in rat at 5 mg/kg, iv
Format: ADME, organism-based
Set-up: dose 5 mg/kg, route intravenous
assay_conditions: in vivo
quantity_kind: clearance (mL/min/kg)
Your answer is read as mL/min/kg, so omit the unit and give the number.

Recall and state the measured clearance for `CC(=O)N1CCc2c(nc(C)n2[C@@H]2C[C@H]3CC[C@@H](C2)N3CCCN(C(=O)Nc2ccc(C(F)(F)F)cc2)c2ccccc2)C1` .
28.8

* * *

measurement_description: Half life in rat at 30 mg/kg, po
Type: ADME, organism-based
Set-up: dose 30 mg/kg, route oral
assay_conditions: in vivo
quantity_kind: half-life (h)
Your answer is read as h, so omit the unit and give the number.

Recall and state the measured half-life for `CC(=O)N1CCc2c(nc(C)n2[C@@H]2C[C@H]3CC[C@@H](C2)N3CCCN(C(=O)Nc2ccc(C(F)(F)F)cc2)c2ccccc2)C1` .
7.2

* * *

measurement_description: AUC in rat at 30 mg/kg, po
Type: ADME, organism-based
Parameters: dose 30 mg/kg, route oral
assay_conditions: plasma
quantity_kind: AUC (ng·h/mL)
Your answer is read as ng·h/mL, so omit the unit and give the number.

Recall and state the measured AUC for `CC(=O)N1CCc2c(nc(C)n2[C@@H]2C[C@H]3CC[C@@H](C2)N3CCCN(C(=O)Nc2ccc(C(F)(F)F)cc2)c2ccccc2)C1` .
8990
